These records show IC50 for Human immunodeficiency virus type 1 reverse transcriptase (Human immunodeficiency virus 1).
Write your answer as a measured quantity: the number, then the unit.

{"columns": ["Smiles", "Observation type", "Measured"],
 "data": [
  ["Cc1ccc(-n2nccc2SCC(=O)Nc2ccc(-c3ccc(CC(=O)O)cc3)cc2Cl)c(Cl)c1", "IC50", "7.9 nM"],
  ["Cc1[nH]nc(OCC(=O)Nc2ccc(-c3ccc(CC(=O)O)cc3)cc2Cl)c1-c1ccc(C(C)(C)C)cc1Cl", "IC50", "2090 nM"],
  ["Cc1ccc(-c2c(SCC(=O)Nc3ccc(-c4ccc(CC(=O)O)cc4)cc3Cl)cnn2C)c(Cl)c1", "IC50", "1.9 nM"]
]}

Form: compound = "Cc1[nH]nc(OCC(=O)Nc2ccc(C#CC(C)(C)C(=O)O)cc2Cl)c1-c1ccc(C(C)(C)C)cc1Cl" ; IC50 = 2400 nM

----------
target: UniProt:Q72547
pIC50: −log10 of the molar value.
Would you mind labelling by pIC50? At or over 8 is true, under is false.

{"columns": ["Smiles", "Target system", "Classification"],
 "data": [
  ["Cc1ccc(-c2ncsc2SCC(=O)Nc2ccc(-c3ccc(CC(=O)O)cc3)cc2Cl)c(Cl)c1", "UniProt:Q72547", "false"],
  ["Cc1ccc(-c2ccccc2SCC(=O)Nc2ccc(-c3ccc(CC(=O)O)cc3)cc2Cl)c(Cl)c1", "UniProt:Q72547", "false"],
  ["Cc1ccc(-n2nnnc2SCC(=O)Nc2ccc(-c3ccc(OCC(=O)O)cc3)cc2Cl)c(Cl)c1", "UniProt:Q72547", "true"],
  ["Cc1[nH]nc(OCC(=O)Nc2ccc(C#CC(C)(C)CO)cc2Cl)c1-c1ccc(C(C)(C)C)cc1Cl", "UniProt:Q72547", "false"]
]}

Query block: Record "Cc1ccc(-c2ccccc2OCC(=O)Nc2ccc(-c3ccc(CC(=O)O)cc3)cc2Cl)c(Cl)c1" ; criterion: pIC50 no lower than 8. Met?
Result block: false

Query block: Identify whether the reported pIC50 of the following compound is 8 or greater: "CC(C)(C)c1ccc(-c2c[nH]nc2OCC(=O)Nc2ccc(-c3ccc(CC(=O)O)cc3)cc2Cl)c(Cl)c1"
Result block: false

Query block: Test whether the compound "C/C(=C/CCC(=O)Nc1ccc(-c2ccc(CC(=O)O)cc2)cc1Cl)c1ccc(C)cc1Cl" records pIC50 of 8 or higher.
Result block: true

----------
Hi! I'm sharing some log10(IC50) results obtained with UniProt:Q72547.
Record value = log10 of IC50 given in nM.

{"columns": ["Smiles", "log10(IC50)"],
 "data": [
  ["C/C(=C/CCC(=O)Nc1ccc(-c2ccc(OCC(=O)O)cc2)cc1Cl)c1ccc(C)cc1Cl", 1.18],
  ["Cc1ccc(-n2nncc2SCC(=O)Nc2ccc(-c3ccc(CC(=O)O)cc3)cc2Cl)c(Cl)c1", 0.38],
  ["Cc1ccc(-c2nnsc2SCC(=O)Nc2ccc(-c3ccc(CC(=O)O)cc3)cc2Cl)c(Cl)c1", 0.30],
  ["Cc1ccc(-n2c(C)cnc2SCC(=O)Nc2ccc(-c3ccc(CC(=O)O)cc3)cc2Cl)c(Cl)c1", 0.98],
  ["Cc1ccc(-c2ncoc2SCC(=O)Nc2ccc(-c3ccc(CC(=O)O)cc3)cc2Cl)c(Cl)c1", 2.56],
  ["C/C(=C\\CCC(=O)Nc1ccc(-c2ccc(OCC(=O)O)cc2)cc1Cl)c1ccc(C)cc1Cl", 2.43]
]}

Next up:
log10(IC50) of "Cc1ccc(-n2nccc2OCC(=O)Nc2ccc(-c3ccc(CC(=O)O)cc3)cc2Cl)c(Cl)c1" , assay on UniProt:Q72547, is 1.26

Just for reference, ChEMBL document CHEMBL1136846 is where these values come from.
